From: patent US20210130436A1

Target: human CD28 (human, UniProt P10747 19-220)
Test: flow cytometry, Jurkat cells (CD28)
reportedEndpoint: Fold change to WT CD80 (fold)
Numbers only, in fold.

| binder | Fold change to WT CD80 [fold] |
| --- | --- |
| CD80 IgV-Fc T13R/Q33R/E35D/M38I/M47L/V68M (Fc fusion, not shown: a dimerising Fc or GST) VIHVTKEVKEVARLSCGHNVSVEELAQTRIYWRKDKKIVLTMMSGDLNIWPEYKNRTIFDITNNLSIMILALRPSDEGTYECVVLKYEKDAFKREHLAEVTLSVKAD | 0.4 |
| CD80 IgV-Fc T13R/Q33L/E35D/M47V/T62S/V68M/L85M (Fc fusion, not shown: a dimerising Fc or GST) VIHVTKEVKEVARLSCGHNVSVEELAQTRIYWLKDKKMVLTMMSGDVNIWPEYKNRTIFDISNNLSIMILALRPSDEGTYECVVMKYEKDAFKREHLAEVTLSVKAD | 0.5 |
| CD80 IgV-Fc T13R/Q33R/E35D/M38I/M47L/V68M/L85M (Fc fusion, not shown: a dimerising Fc or GST) VIHVTKEVKEVARLSCGHNVSVEELAQTRIYWRKDKKIVLTMMSGDLNIWPEYKNRTIFDITNNLSIMILALRPSDEGTYECVVMKYEKDAFKREHLAEVTLSVKAD | 0.5 |

Proceeding to the next binder to report its Fold change to WT CD80.
[ask] Need Fold change to WT CD80, item CD80 IgV-Fc T13R/Q33L/E35D/M47L/V68M/L85M (Fc fusion, not shown: a dimerising Fc or GST) VIHVTKEVKEVARLSCGHNVSVEELAQTRIYWLKDKKMVLTMMSGDLNIWPEYKNRTIFDITNNLSIMILALRPSDEGTYECVVMKYEKDAFKREHLAEVTLSVKAD
[reply] 0.5
